In this section we review reported SPOT peptide array binding signal intensity values for a set of binders.
# test.system: ScMyo3
# assay.comment: SPOT peptide array binding signal intensity (averaged, normalized) (arbitrary units (background-subtracted, floor 0; scale differs between SH3 domains)); higher = stronger binding of the SH3 domain to the peptide

Sample answers from the record:
{"binder": "LLLLFVPDSPYDPAI", "meas.value": "≤ 0"}
{"binder": "PSRRAPLQLPQLVNK", "meas.value": "≤ 0"}
{"binder": "APKREAPKPPANTSP", "meas.value": 616}

Prompt: Fill blank: measured SPOT peptide array binding signal intensity of the binder QQNRPLPQLPNRNNR is ____.
Completion: ≤ 0

Where do these numbers come from? They come from the supplement of paper PMC4466140.
